# targetUnderTest: Anti-CD28 Fab (SEQ ID NOs: 696, 697)
# Sequence (VH, as listed by the source, chain 1 of 2): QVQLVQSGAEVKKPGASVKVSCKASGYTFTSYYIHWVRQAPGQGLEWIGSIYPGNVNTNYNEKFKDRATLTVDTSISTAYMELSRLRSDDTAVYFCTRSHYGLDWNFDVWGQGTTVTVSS
# Sequence (VL, as listed by the source, chain 2 of 2): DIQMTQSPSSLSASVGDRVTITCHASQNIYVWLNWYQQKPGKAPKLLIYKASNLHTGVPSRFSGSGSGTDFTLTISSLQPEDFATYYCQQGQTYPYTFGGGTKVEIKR
# method: phage binding ELISA; biotinylated anti-CD28 Fab on neutravidin plate, clonal phage supernatant, anti-M13 HRP detection;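 also: wells pretreated with blocking buffer, either plus or minus CD28 antigen, then given crude phage supernatant briefly without washing in between, then washed before anti-M13 HRP readout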
Where no end group is shown, it is not given here.
Exercise: state measured Anti-CD28 Fab (SEQ ID NOs: 696, 697) signal for each of the binders provided.
Give bare numbers.

Could you tell me Anti-CD28 Fab (SEQ ID NOs: 696, 697) signal for each of these binders? They are listed below.
1. RCAAGASYPWPPCL [Phage-1372 peptide (Peptide-92 library sequence, SEQ ID NO: 1668)]
2. MCAAGATYPWPACL (cysteine pairing not given here; also: fused to phage pIII protein) [Phage-1361 peptide (Peptide-92 library sequence, SEQ ID NO: 1657)]
3. TCKAGATYLWPFCL [Phage-1373 peptide (Peptide-92 library sequence, SEQ ID NO: 1669)]
4. LCAAGATYPWPFCL [Phage-1366 peptide (Peptide-92 library sequence, SEQ ID NO: 1662)]
5. TCSAGATWSWPMCL [Phage-1368 peptide (Peptide-92 library sequence, SEQ ID NO: 1664)]
6. SCAAGAMWPWPVCV [Phage-1362 peptide (Peptide-92 library sequence, SEQ ID NO: 1658)]
7. TCAAGAHYSWPACF [Phage-1370 peptide (Peptide-92 library sequence, SEQ ID NO: 1666)]

1: 2.25; 2: 2.3; 3: 2.23; 4: 2.28; 5: 2.26; 6: 2.29; 7: 2.25
